TARGET OR TEST SYSTEM: VIM-1 (Pseudomonas aeruginosa)
METHOD NOTES: Ki app determination (Waley's method)
RUN PARAMETERS: read-out: Ki app; VIM-1; means from three independent studies
MEASURE: Ki (nM)
One number for each entry, in nM.

# assay system VIM-1 (Pseudomonas aeruginosa): give Ki of `NCCN[C@H]1CC[C@H](CC(=O)N[C@H]2Cc3cccc(C(=O)O)c3OB2O)CC1`
271

====

TARGET OR TEST SYSTEM: OXA-23 (Acinetobacter baumannii)
Sequence (Q9L4P2 18-273): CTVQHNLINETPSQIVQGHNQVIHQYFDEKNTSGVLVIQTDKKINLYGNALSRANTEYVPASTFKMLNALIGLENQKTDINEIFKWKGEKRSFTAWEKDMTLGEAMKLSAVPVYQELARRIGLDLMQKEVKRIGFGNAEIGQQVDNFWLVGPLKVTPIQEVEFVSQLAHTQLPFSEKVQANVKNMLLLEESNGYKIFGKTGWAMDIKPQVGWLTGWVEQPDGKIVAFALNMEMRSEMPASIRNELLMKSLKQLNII
METHOD NOTES: Ki app determination (Waley's method)
RUN PARAMETERS: read-out: Ki app; OXA-23; means from three independent studies
MEASURE: Ki

Give me measured Ki, please, for this compound: `NCCN[C@H]1CC[C@H](CC(=O)N[C@H]2Cc3cccc(C(=O)O)c3OB2O)CC1`
> 100 µM

====

Tested on: MEM-nonsusceptible Enterobacterales with metallo-carbapenemases
METHOD NOTES: MIC, broth microdilution
Assay type: cell-based
RUN PARAMETERS: MEM-nonsusceptible Enterobacterales with metallo-carbapenemases (55); cefiderocol 54 isolates; CLSI breakpoints; marked c: breakpoints for β-lactam alone; tigecycline: FDA breakpoints
Could you please report measured CLSI MIC interpretation R (resistant) for the items listed next?
Answers are plain numbers, in %.

Worked examples follow.
{"LINE NOTATION": "NCC[C@H](O)C(=O)N[C@@H]1C[C@H](N)[C@@H](O[C@H]2O[C@H](CN)[C@@H](O)[C@H](O)[C@H]2O)[C@H](O)[C@H]1O[C@H]1O[C@H](CO)[C@@H](O)[C@H](N)[C@H]1O", "TARGET OR TEST SYSTEM": "MEM-nonsusceptible Enterobacterales with metallo-carbapenemases", "MEASURE": "CLSI MIC interpretation R (resistant)", "QUANTITATIVE RESULT": 65.5}
{"LINE NOTATION": "CC(C)(O/N=C(\\C(=O)N[C@@H]1C(=O)N2C(C(=O)[O-])=C(C[n+]3ccccc3)CS[C@H]12)c1csc(N)n1)C(=O)O", "TARGET OR TEST SYSTEM": "MEM-nonsusceptible Enterobacterales with metallo-carbapenemases", "MEASURE": "CLSI MIC interpretation R (resistant)", "QUANTITATIVE RESULT": 98.2}
{"LINE NOTATION": "C[C@@H](O)[C@H]1C(=O)N2C(C(=O)O)=C(S[C@@H]3CN[C@H](C(=O)N(C)C)C3)[C@H](C)[C@H]12", "TARGET OR TEST SYSTEM": "MEM-nonsusceptible Enterobacterales with metallo-carbapenemases", "MEASURE": "CLSI MIC interpretation R (resistant)", "QUANTITATIVE RESULT": 87.3}

Please look at the following compound next.
# assay system MEM-nonsusceptible Enterobacterales with metallo-carbapenemases: give CLSI MIC interpretation R (resistant) of `CC(C)(O/N=C(\C(=O)N[C@@H]1C(=O)N2C(C(=O)[O-])=C(C[N+]3(CCNC(=O)c4ccc(O)c(O)c4Cl)CCCC3)CS[C@H]12)c1csc(N)n1)C(=O)O`
1.9

====

System: MEM-, imipenem/relebactam-, and ceftolozane/tazobactam-nonsusceptible P. aeruginosa
METHOD NOTES: MIC, broth microdilution
Type: cell-based, Pseudomonas aeruginosa
RUN PARAMETERS: Pseudomonas aeruginosa, Table 2; broth microdilution; read-out: MIC50
MEASURE: MIC50 (µg/mL)
Give bare numbers, in µg/mL.

{"LINE NOTATION": "O=C(O)c1cn(C2CC2)c2cc(N3CCNCC3)c(F)cc2c1=O", "MIC50 / µg/mL": 32}
{"LINE NOTATION": "C[C@H]1[C@H](NC(=O)/C(=N\\OC(C)(C)C(=O)O)c2csc(N)n2)C(=O)N1S(=O)(=O)O", "MIC50 / µg/mL": 32}
{"LINE NOTATION": "NCC[C@H](O)C(=O)N[C@@H]1C[C@H](N)[C@@H](O[C@H]2O[C@H](CN)[C@@H](O)[C@H](O)[C@H]2O)[C@H](O)[C@H]1O[C@H]1O[C@H](CO)[C@@H](O)[C@H](N)[C@H]1O", "MIC50 / µg/mL": 64}
{"LINE NOTATION": "CN(C)c1cc(NC(=O)CNC(C)(C)C)c(O)c2c1C[C@H]1C[C@H]3[C@H](N(C)C)C(O)=C(C(N)=O)C(=O)[C@@]3(O)C(O)=C1C2=O", "MIC50 / µg/mL": 4}

Please look at the following compound next.
Give me measured MIC50, please, for this compound: `C[C@H]1COc2c(N3CCN(C)CC3)c(F)cc3c(=O)c(C(=O)O)cn1c23`
32
